# Tested on: M14
# Test summary: NCI tumour cell line growth inhibition, 48 h
Active and inactive are the calls of the source. Cut-off read from the data, not from the text of the source: active = GI50 up to about 1.1 µM and inactive = higher.
Assay readout: GI50

• NCC(=O)N1CCN(c2nc(N3CCCC3)c3nc(Cl)c(NCc4ccccc4)nc3n2)CC1 = 1.72 µM (inactive)
• O=C(N/N=C\c1ccc2ccccc2c1)Nc1ccc([N+](=O)[O-])cc1 = 32.2 µM (inactive)
• COc1c2ccsc2c(OC)c2ccsc12 = > 100 µM (inactive)
• CC#N.O[C@@H]1CCCC[C@@H]1O.O[C@@H]1CCCC[C@@H]1O.[TeH2] = > 100 µM (inactive)
• O=c1[nH]c(=O)n2n1C1C=CC2CC1 = > 100 µM (inactive)
• COC(=N)c1csc(C2OC(CO)C(O)C2O)n1 (stereo not drawn) = > 100 µM (inactive)
• Cc1nnc(N)nc1C/C=C/C(Sc1ccc(Cl)cc1)c1ccccc1 (stereo not drawn) = 4.73 µM (inactive)
• CCC(c1ccc(N(C)C)cc1)C1NC(=S)NC1=O (stereo not drawn) = 74.8 µM (inactive)
• C=C1[C@@H]([C@@]2(C)C=CC(=O)C(C)(C)[C@@H]2CC(=O)OC)CC[C@@]2(C)[C@H](c3ccoc3)OC(=O)[C@H]3O[C@]132 [ANDIROBIN] = > 100 µM (inactive)
• NC(=O)NC(=O)c1ccc(NC(=O)CBr)cc1 = 11.8 µM (inactive)
• CSC1=C(SC)SC(=C2SC3=C(SC(=C4SCCS4)S3)S2)S1 = > 100 µM (inactive)
• NS(=O)(=O)c1ccc(/C=C/c2cccc(O)c2)cc1 = 55.6 µM (inactive)
• COc1cc(CNC(=O)CCCCCCCCCCSC#N)ccc1O = 7.38 µM (inactive)
• CC1C[C@]2(C)C(=S)Nc3ccccc3[C@@H]2Nc2ccccc21 (stereo partly drawn) = 17.4 µM (inactive)
• CCOC(=O)Cc1nnc2n(-c3ccccc3)c(=O)c3ccccc3n12 = > 100 µM (inactive)
• CC(=O)C(C(=N)C#N)C(=O)Nc1ccccc1 (stereo not drawn) = > 100 µM (inactive)
• COc1ccc2c(c1)NC1(O)c3ccccc3C(=O)C21O (stereo not drawn) = > 100 µM (inactive)
• O=C(O)C12CC3(C(=O)O)CC(C(=O)O)(CC(C(=O)O)(C1)C3=O)C2=O = > 100 µM (inactive)

---

In what follows, each item is paired with its GI50 for HCT-15.
Where a SMILES comes first, the peptide text is derived from it. [ ]: non-standard residue; d: D form. Phe(4-Cl) = N[CH](Cc1ccc(Cl)cc1)C(=O)O
Assay readout: GI50 (µM)

- O=C(CNC(=O)c1ccccc1)Oc1c(Cl)c(Cl)c(Cl)c(Cl)c1Cl: 30.6
- Cc1nnc(N)nc1C/C=C/C(Sc1ccc(Cl)cc1)c1ccccc1 (stereo not given): 3.25
- CC(O)C(NC(=O)C(Cc1ccccc1)NC(=O)C(NC(=O)C(CCCCN)NC(=O)C(Cc1c[nH]c2ccccc12)NC(=O)C(Cc1ccc(O)cc1)NC(=O)C(Cc1ccc(Cl)cc1)NC(=O)C(N)Cc1ccccc1)C(C)O)C(N)=O (stereo not given) (H-F[Phe(4-Cl)]YWKTFT-NH2; configuration not given here): 17.9
- COc1cc(Cc2cc(OC)c(OC)c(OC)c2)ccc1O: 3.28
- COC(=O)/C=C1\CCC2[C@@H](C(=O)CC3[C@]2(C)CCC[C@@]3(C)C(=O)OC)C1C (stereo not given in full): 29.8
- O=C1c2c(O)ccc(O)c2C(=O)c2c(NCCNC(=O)C(O)C(O)C(O)C(O)CO)ccc(NCCNC(=O)C(O)C(O)C(O)C(O)CO)c21 (stereo not given): 0.0138
- NC(=S)N/N=C\c1ccc(OCc2cccc(COc3ccc(/C=N/NC(N)=S)cc3)n2)cc1: 43.7
- O=c1oc2ccc3ccccc3c2cc1-c1nnc(Nc2ccccc2)s1: 51.6

---

Form field: GI50 (one value per entry).
# Tested on: NCI-H460
# Test summary: NCI tumour cell line growth inhibition, 48 h
Active and inactive are the calls of the source. Rule as the data show it: active = GI50 up to about 1.1 µM and inactive = higher.
Assay readout: GI50

• CCOC(=O)C1=C(NC)OCC1=O = > 100 µM (inactive)
• CCC(c1ccc(N(C)C)cc1)C1NC(=S)NC1=O (centres undefined) = > 100 µM (inactive)
• O=C1COCCN1C(=O)c1ccccc1Cl = > 100 µM (inactive)
• COc1ccc(NC(=S)N/N=C/c2cccc(C)n2)cc1 = 3.46 µM (inactive)

---

# System: MCF7
# Test summary: NCI tumour cell line growth inhibition, 48 h
Calls of active or inactive are those of the source. Cut-off read from the data, not from the text of the source: active = GI50 up to about 1.1 µM and inactive = higher.
Classes used: Yes for active, No for inactive

* Nc1nc(NCC2(CO)CCC2)cc(=O)[nH]1 | No
* CC[C@@H](C)[C@H](NC(=O)[C@H](Cc1ccccc1)NCC(F)(F)F)C(=O)OC(C)(C)C | No
* C/C1=C/C[C@@H](/C(C)=C/c2csc(C)n2)OC(=O)C[C@H](O)C(C)(C)C(=O)[C@H](C)[C@@H](O)[C@@H](C)CCC1 | Yes
* O=C(N/N=C\c1ccc2ccccc2c1)Nc1ccc([N+](=O)[O-])cc1 | No
* O=[N+]([O-])c1ccc(C(O)(C#CCN2CCCC2)c2ccccc2)cc1 (configuration not stated) | No
* COC(=O)c1ccc(/N=N/N(C)COc2ccc(Br)cc2)cc1 | No
* CCOC(=O)Cc1nnc2n(-c3ccccc3)c(=O)c3ccccc3n12 | No

---

# System: Malme-3M
# Test summary: NCI tumour cell line growth inhibition, 48 h
Activity calls are given as the source filed them. No stated cut-off is given here; in the data, active = GI50 up to about 1.1 µM and inactive = higher.
Assay readout: GI50

* Nc1nc(NCC2(CO)CCC2)cc(=O)[nH]1 | > 100 µM (inactive)
* CC1=NN(C(=O)c2ccc(Cl)cc2)C(=O)/C1=C/c1ccc(O)cc1 | > 100 µM (inactive)
* O=c1oc2ccccc2cc1-c1cn2ccccc2n1 | 3.22 µM (inactive)
* C#CC(O)Cc1ccc(OC)c2occc12 (configuration not stated) | > 100 µM (inactive)
* CC1(C)O[C@H]2OC(CO)C(N=[N+]=[N-])[C@H]2O1 (some centres not stated) | > 100 µM (inactive)
* CCC(CC)(CO)CNc1cc(Cl)nc(N)n1 | > 100 µM (inactive)
* Nc1nc(O)c2ncn([C@H]3CC[C@@H](CO)O3)c2n1 | > 100 µM (inactive)
* O=S(=O)(Nc1ccc2ccc3cccc4ccc1c2c34)c1ccccc1 | 38.9 µM (inactive)
* COc1ccc2c(c1)[n+]([O-])c(C(=O)CC(=O)C(=O)Nc1cccc(Cl)c1C)c(C)[n+]2[O-] | > 100 µM (inactive)
* CSC(C1c2ccccc2N(C)c2[nH]c(=O)n(C)c(=O)c21)S(=O)(=O)c1ccc(C)cc1 (configuration not stated) | > 100 µM (inactive)
* COc1cc(Cc2cc(OC)c(OC)c(OC)c2)ccc1O | 2.41 µM (inactive)
* O=C(Cc1ccccc1)NN1C(=O)C(Cl)C1c1ccc(Cl)cc1 (configuration not stated) | > 100 µM (inactive)
* C[C@]12CCC(=O)CC1CCCC2=O (some centres not stated) | > 100 µM (inactive)
* C/N=c1\ss/c(=N\C(=S)N(C)C)n1-c1ccccc1 | > 100 µM (inactive)
* CSc1nc(C)c(CCOC(C)=O)c(Cl)n1 | > 100 µM (inactive)
* CCCCC#COP(=O)(OCC)OCC | > 100 µM (inactive)
* O=C(CNC(=O)c1ccccc1)Oc1c(Cl)c(Cl)c(Cl)c(Cl)c1Cl | 28.8 µM (inactive)
* COc1cc2c(cc1O)-c1c(cnn1-c1ccc([N+](=O)[O-])cc1)CCC2 | 5.82 µM (inactive)
* CCOC(=O)/C(=C\c1cccs1)P(=O)(OCC)OCC | 22.7 µM (inactive)
* CC(C)CNC(=O)CCc1cccc2c1oc1c(CCN)cccc12 | 16.6 µM (inactive)
* Cn1c2ccccc2c(=NNc2cccc(C(=O)O)c2)c2ccccc21 | 20.1 µM (inactive)
* CC(=O)O[C@H]1[C@@H](N2CCN(C)CC2)C[C@H]2[C@@H]3CC=C4C[C@@H](N5CCCC5)CC[C@]4(C)[C@H]3CC[C@@]21C | 26.1 µM (inactive)
* Cc1cn(CCCC2=NCCCN2)c(=O)[nH]c1=O | > 100 µM (inactive)
* CN(C(=O)C1CCCCCC1=O)c1ccccc1Cl (configuration not stated) | > 100 µM (inactive)
* COc1ccc(-c2cc(O)c3cc(OC)c(OC)cc3n2)cc1OC | > 100 µM (inactive)
* Fc1cccc(F)c1C1SCc2nc3ccccc3n21 (configuration not stated) | 55.5 µM (inactive)
* O=[N+]([O-])c1ccc(-c2ccc(-c3csc(Nc4ccccc4)n3)o2)cc1 | 17 µM (inactive)
* COC(=O)CCC(NC(=S)N/N=C/c1ccco1)C(=O)OC (configuration not stated) | > 100 µM (inactive)
* O=C1c2ccc(O)cc2OC(c2cc(O)c(O)c(O)c2)C1O (configuration not stated) [DIHYDROBINETIN] | > 100 µM (inactive)
* CCOC(=O)C1(C(=O)OCC)[C@@H](c2ccccc2)C2=NO[C@@H]3CCC[C@H]1[C@H]23 | > 100 µM (inactive)
* CSC(Cc1ccc2c(c1)Sc1ccccc1O2)=[N+]1CCOCC1 | 26.4 µM (inactive)
* CCCCCCCC1(c2ccc(N)cc2)CCC(=O)NC1=O (configuration not stated) | 28.1 µM (inactive)
